System: Cells stably expressing Amyloid Precursor Protein (APP)
protocol summary: In vitro BACE cell-based assay (HEK cell assay): Aβ40 in conditioned medium by sandwich ELISA
run parameters: Homo sapiens, HEK293, 24 h, Aβ40 in conditioned medium after 24 h incubation
Procedure: In Vitro BACE Cell-Based Assay: The cell-based assay measures inhibition or reduction of Aβ40 in conditioned medium of test compound treated cells expressing amyloid precursor protein. Cells stably expressing Amyloid Precursor Protein (APP) were plated at a density of 40K cells/well in 96 well plates (Costar). […] After 24 h of incubation with the test compounds the supernatant conditioned media was collected and the Aβ 40 levels were determined using a sandwich ELISA. […]
pIC50: −log10 of the molar value.
recorded endpoint: pIC50

Past entries and their recorded results:
compound=C#CC[C@H](NC(=O)c1cc(F)cc(F)c1)[C@H](O)CN[C@H]1CC2(CCC2)Oc2ncc(CC(C)(C)C)cc21 recorded_endpoint=pIC50 value_reported=5.38
compound=C=CC[C@H](NC(=O)[C@@H](CC)OC)[C@H](O)CN[C@H]1CC2(CCC2)Oc2ncc(CC(C)(C)C)cc21 recorded_endpoint=pIC50 value_reported=6.61
compound=C=CC[C@H](NC(=O)c1cc(F)cc(F)c1F)[C@H](O)CN[C@H]1CC2(CCC2)Oc2ncc(CC(C)(C)C)cc21 recorded_endpoint=pIC50 value_reported=5.79
compound="C=CCC(NC(=O)C1CN(C(=O)N2CCCCC2)CCO1)C(O)CNC1CC2(CCC2)Oc2ncc(CC(C)(C)C)cc21 (centres unmarked)" recorded_endpoint=pIC50 value_reported=8.40

[P] C=CC[C@H](NC(=O)c1cccnc1)[C@H](O)CN[C@H]1CC2(CCC2)Oc2ncc(CC(C)(C)C)cc21
[Q] C=CC[C@H](NC(=O)c1ccccc1)[C@H](O)CN[C@H]1CC2(CCC2)Oc2ncc(CC(C)(C)C)cc21
[R] C=CC[C@H](NC(=O)c1ccc(F)cc1)[C@H](O)CN[C@H]1CC2(CCC2)Oc2ncc(CC(C)(C)C)cc21
Give the ascending ranking of the items by reported pIC50. Sort the labels as requested; that list is your answer.
R, Q, P
(R: 6.18, Q: 6.46, P: 6.87)

###

target entity: CYP3A4 (CYP3A) (Homo sapiens, UniProt P08684)
Sequence (P08684 2-503): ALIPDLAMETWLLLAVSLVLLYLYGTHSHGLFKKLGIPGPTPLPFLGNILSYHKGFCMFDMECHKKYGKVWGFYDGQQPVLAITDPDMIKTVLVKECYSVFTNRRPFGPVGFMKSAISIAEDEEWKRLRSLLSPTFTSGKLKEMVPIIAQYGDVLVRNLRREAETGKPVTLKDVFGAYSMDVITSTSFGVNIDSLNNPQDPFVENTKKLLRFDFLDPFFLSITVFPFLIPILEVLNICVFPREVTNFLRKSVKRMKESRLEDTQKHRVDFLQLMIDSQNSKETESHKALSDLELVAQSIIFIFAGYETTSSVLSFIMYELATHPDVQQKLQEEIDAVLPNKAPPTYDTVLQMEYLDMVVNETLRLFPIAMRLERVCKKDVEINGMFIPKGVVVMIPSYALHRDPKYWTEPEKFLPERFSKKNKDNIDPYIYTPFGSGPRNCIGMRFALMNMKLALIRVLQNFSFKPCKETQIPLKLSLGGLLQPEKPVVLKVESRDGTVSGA
protocol summary: CYP3A inhibition assay (midazolam, pooled human liver microsomes)
Assay type: in vitro ADME
run parameters: human, pooled human liver microsomes, pH 7.4, probe midazolam (printed as about […]); read-out: 3A4 IC50
recorded endpoint: IC50 at 10 min (nM)

[P] C#CC[C@H](NC(C)=O)[C@H](O)CNC1CC2(CCC2)Oc2c1cc(CC(C)(C)C)nc2NC (stereo partly shown) [Example 221]
[Q] C=CC[C@H](NC(=O)COC)[C@H](O)CN[C@H]1CC2(CCC2)Oc2c(-c3cncs3)cc(CC(C)(C)C)cc21 [compound 217]
[R] C=CC[C@H](NC(C)=O)[C@H](O)CN[C@H]1CC2(CCC2)Oc2c1cc(CC(C)(C)C)nc2Nc1ccccc1 [compound 229]
[S] C=CC[C@H](NC(=O)COC)[C@H](O)CN[C@H]1CC2(CCC2)Oc2c1cc(CC(C)C)cc2-n1ccnc1 [compound 209]
Sort entries by IC50 at 10 min from minimum to maximum value. Sort the labels as requested; that list is your answer.
S, Q, P, R
(S: 100 nM, Q: 200 nM, P: 1900 nM, R: 6100 nM)

The reported measurements were obtained from patent US8633315B2.
